Tested on: DU-145 prostate
Experiment: NCI-60 one-dose screen, 48 h (100 = growth as untreated, 0 = no growth, -100 = all killed)
Conditions: 10 µM unless noted
Compounds without any hit were thinned out: in the full panel of roughly 83,000, 20% have a hit.
Quick list: growth per entry.
measured-quantity: growth (%)

INSERT INTO measurements (compound, readout_unit, result_value) VALUES
  ('CCC(C)CC(CC)NCCN1CCN(C(CC)CC(C)CC)C1=S (centres undefined)', '%', 29.5),
  ('O=C(O)C(=O)O', '%', 99.6),
  ('O=C(Nc1ccc(Cl)cc1)Nc1ccc(Nc2nncc3ccccc23)cc1', '%', 33.7),
  ('COC(=O)c1ccc2c(c1)nc(-c1ccc(O)c(OC)c1)n2-c1cc(C(C)(C)C)[nH]n1', '%', 118);
